biological target: α4β7 integrin (Homo sapiens (Human), UniProt P13612+P26010); assay: Integrin Adhesion Assay: Protocol 4 (MAdCAM-coated plate, RPMI-8866 cells with stable LOF mutation of the ITGB1 gene); type: cell-based; details: RPMI-8866 cells with stable LOF mutation of the ITGB1 gene; read-out: Mean IC50 α4β7 KO^a
Sequence (P13612 34-1032): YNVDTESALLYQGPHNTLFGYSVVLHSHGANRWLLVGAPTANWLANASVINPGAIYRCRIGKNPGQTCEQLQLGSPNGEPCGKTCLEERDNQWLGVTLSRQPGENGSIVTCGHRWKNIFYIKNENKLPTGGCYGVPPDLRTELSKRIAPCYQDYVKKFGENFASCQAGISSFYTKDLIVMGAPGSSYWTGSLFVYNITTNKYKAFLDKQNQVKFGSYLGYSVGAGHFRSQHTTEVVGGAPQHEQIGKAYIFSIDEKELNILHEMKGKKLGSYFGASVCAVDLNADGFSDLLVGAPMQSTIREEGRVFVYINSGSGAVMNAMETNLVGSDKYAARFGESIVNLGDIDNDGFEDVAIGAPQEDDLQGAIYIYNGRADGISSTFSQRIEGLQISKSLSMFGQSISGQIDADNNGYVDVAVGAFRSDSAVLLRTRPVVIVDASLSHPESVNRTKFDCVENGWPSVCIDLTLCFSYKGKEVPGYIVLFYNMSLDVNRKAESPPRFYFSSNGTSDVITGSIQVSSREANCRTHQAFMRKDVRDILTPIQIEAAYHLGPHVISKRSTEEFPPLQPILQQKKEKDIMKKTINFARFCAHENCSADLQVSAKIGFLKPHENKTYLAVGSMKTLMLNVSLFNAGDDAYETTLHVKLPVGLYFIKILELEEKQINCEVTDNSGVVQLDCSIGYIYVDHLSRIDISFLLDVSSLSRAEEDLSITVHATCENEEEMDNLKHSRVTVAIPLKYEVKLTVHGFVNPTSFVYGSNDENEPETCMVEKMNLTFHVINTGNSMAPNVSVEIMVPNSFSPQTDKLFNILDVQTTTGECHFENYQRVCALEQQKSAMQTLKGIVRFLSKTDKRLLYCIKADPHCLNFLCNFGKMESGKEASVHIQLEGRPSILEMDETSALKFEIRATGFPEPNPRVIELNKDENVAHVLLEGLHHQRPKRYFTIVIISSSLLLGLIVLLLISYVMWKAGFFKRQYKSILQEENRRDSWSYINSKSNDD
Sequence (P26010 20-798): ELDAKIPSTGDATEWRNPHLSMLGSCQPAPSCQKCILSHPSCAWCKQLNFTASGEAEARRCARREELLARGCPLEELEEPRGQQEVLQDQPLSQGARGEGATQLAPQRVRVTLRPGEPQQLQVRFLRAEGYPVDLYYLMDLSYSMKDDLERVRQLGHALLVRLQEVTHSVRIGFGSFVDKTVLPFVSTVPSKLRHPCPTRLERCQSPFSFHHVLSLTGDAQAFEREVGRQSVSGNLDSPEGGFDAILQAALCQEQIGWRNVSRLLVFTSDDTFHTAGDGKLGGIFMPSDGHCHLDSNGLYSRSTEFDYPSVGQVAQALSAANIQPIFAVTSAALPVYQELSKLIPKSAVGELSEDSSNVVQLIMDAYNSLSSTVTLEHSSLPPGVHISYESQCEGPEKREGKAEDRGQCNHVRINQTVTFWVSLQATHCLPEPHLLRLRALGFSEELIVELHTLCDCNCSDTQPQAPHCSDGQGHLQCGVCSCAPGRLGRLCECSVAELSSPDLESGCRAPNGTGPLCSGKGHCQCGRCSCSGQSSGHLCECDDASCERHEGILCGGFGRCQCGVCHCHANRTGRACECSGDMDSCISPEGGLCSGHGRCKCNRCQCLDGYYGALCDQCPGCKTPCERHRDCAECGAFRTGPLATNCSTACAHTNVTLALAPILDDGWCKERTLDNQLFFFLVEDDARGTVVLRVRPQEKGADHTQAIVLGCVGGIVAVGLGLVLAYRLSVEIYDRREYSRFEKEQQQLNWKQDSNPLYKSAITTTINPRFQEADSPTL
pIC50: −log10 of the molar value.
Observable: pIC50

The examples below pair each entry with its known result.
Molecule smiles: Cn1c(=O)c(-c2cccc3c(C[C@H](NC(=O)C4(C(F)(F)F)CCN(C5CCOCC5)CC4)C(=O)O)cccc23)c(C(F)(F)F)c2ccccc21
pIC50: 7.00 to 8.00

Molecule smiles: COc1ccc(CN(C)C)c(OC)c1-c1cccc2c(C[C@H](NC(=O)c3c(C)cccc3CN3CCC(F)(F)CC3)C(=O)O)cccc12
pIC50: 6.00 to 7.00

Molecule smiles: O=C(O)[C@H](Cc1cccc2c(-c3ncc(CN4CCCCC4)c4ccccc34)cccc12)NC(=O)C1(C(F)(F)F)CCN(C2CC(F)(F)C2)CC1
pIC50: > 8.00

Molecule smiles: Cn1c(=O)c(-c2cccc3c(C[C@H](NC(=O)c4c(F)ccc(C(F)(F)F)c4F)C(=O)O)cccc23)c(C(F)(F)F)c2ccccc21
pIC50: 6.00 to 7.00

Molecule smiles: COc1ccc(CN2CCC(C)(C)CC2)c(C(F)(F)F)c1-c1cccc2c(C[C@H](NC(=O)c3c(C)cccc3F)C(=O)O)cccc12
pIC50: > 8.00

Query: Look up pIC50: "CN(C)Cc1cccc2c(-c3cccc4c(C[C@H](NC(=O)C5(C(F)(F)F)CCN([C@@H]6CCOC6)CC5)C(=O)O)cccc34)nccc12"
Result: > 8.00

====

IC50 values, listed per item
target: α4β7 integrin (Homo sapiens (Human), UniProt P13612+P26010); assay: Integrin Adhesion Assay: Protocol 4 (MAdCAM-coated plate, RPMI-8866 cells with stable LOF mutation of the ITGB1 gene); assay type: cell-based; settings: Protocol 4; RPMI-8866 cells with LOF mutation of ITGB1, MAdCAM; read-out: Mean IC50 α4β7 KO

Take a look at these entries with their results.
Compound: COCc1ccc2c(c1)c(C(F)(F)F)c(-c1cccc3c(CC(NC(=O)c4c(F)cccc4F)C(=O)O)cccc13)c(=O)n2C (stereo not drawn) [Compound 1041]
Recorded measurement: 0.1 to 1 µM

Compound: COc1ccc2c(c1-c1cccc3c(C[C@H](NC(=O)C4(C(F)(F)F)CCN(CC(F)(F)F)CC4)C(=O)O)cccc13)CCN(CC(F)F)C2 [Compound 752]
Recorded measurement: 0.01 to 0.1 µM

Now, please, on to the next compound.
Query: Name the recorded IC50 for O=C(O)[C@H](Cc1cccc2c(-c3ncc(CN4CC5CCC(C4)O5)c4ccccc34)cccc12)NC(=O)C1(C(F)(F)F)CCN(CC(F)(F)F)CC1 [Compound 872] .
Result: 0.01 to 0.1 µM

====

biological target: α4β1 integrin (Homo sapiens (Human), UniProt P05556+P13612); test: Integrin Adhesion Assay: Protocol 2 (VCAM-coated plate, Jurkat cells, CellTiter GLO readout); format: cell-based; conditions: determined by at least one of the assays described (protocol not specified)
Sequence (P13612 34-1032): as the sequence (P13612 34-1032) above
Sequence (P05556 21-798): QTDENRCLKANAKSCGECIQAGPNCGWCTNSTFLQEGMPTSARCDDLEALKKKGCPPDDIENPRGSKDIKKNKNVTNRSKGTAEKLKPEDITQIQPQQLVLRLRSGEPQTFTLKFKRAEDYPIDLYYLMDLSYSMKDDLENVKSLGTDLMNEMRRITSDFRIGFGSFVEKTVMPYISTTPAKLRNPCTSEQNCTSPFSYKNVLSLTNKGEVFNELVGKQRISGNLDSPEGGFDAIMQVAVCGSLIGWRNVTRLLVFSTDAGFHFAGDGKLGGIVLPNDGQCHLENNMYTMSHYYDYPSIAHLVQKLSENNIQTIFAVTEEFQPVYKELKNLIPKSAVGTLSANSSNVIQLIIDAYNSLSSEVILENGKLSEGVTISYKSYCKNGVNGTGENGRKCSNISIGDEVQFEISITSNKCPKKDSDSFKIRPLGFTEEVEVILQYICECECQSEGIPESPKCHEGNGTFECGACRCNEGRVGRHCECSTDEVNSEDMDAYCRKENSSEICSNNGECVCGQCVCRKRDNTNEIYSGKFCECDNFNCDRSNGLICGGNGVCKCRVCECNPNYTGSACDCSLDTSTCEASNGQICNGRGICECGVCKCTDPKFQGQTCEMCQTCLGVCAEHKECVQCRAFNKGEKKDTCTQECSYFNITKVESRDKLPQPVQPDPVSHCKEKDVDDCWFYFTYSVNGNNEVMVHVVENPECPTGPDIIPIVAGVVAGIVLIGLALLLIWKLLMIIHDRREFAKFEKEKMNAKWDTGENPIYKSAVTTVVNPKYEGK
The following molecules are listed with their measured IC50 values.

Molecule: Cn1ccc(=O)n(-c2cccc3c(C[C@H](NC(=O)C4(C)CCOCC4)C(=O)O)cccc23)c1=O [Compound 10]
Observable: IC50
Recorded measurement: 100 to 1000 nM
//
Molecule: CCC1(C(=O)N[C@@H](Cc2cccc3c(-n4c(=O)ccn(C)c4=O)cccc23)C(=O)O)CCN(CC(F)(F)F)CC1 [Compound 152]
Observable: IC50
Recorded measurement: 100 to 1000 nM
//
Molecule: Cn1ccc(=O)n(-c2cccc3c(C[C@H](NC(=O)c4c(F)cc5c(c4F)CS(=O)(=O)N5)C(=O)O)cccc23)c1=O [Compound 43]
Observable: IC50
Recorded measurement: 100 to 1000 nM
//
Molecule: CN(C)CCn1ccc(=O)n(-c2cccc3c(C[C@H](NC(=O)c4c(F)cccc4F)C(=O)O)cccc23)c1=O [Compound 119]
Observable: IC50
Recorded measurement: > 1000 nM
//
Molecule: CN(C)CCc1cc(=O)n(-c2cccc3c(C[C@H](NC(=O)c4c(F)cccc4F)C(=O)O)cccc23)c(=O)n1C [Compound 116]
Observable: IC50
Recorded measurement: > 1000 nM

Query: Give the measured IC50 of Cn1ccc(C(F)(F)F)c(-c2nccc3c(C[C@H](NC(=O)c4c(F)cc(N5CCOC[C@@H]5C(F)(F)F)cc4CN4CCC(F)(F)CC4)C(=O)O)cccc23)c1=O [Compound 226] .
Result: > 1000 nM

Query: Name the recorded IC50 for Cn1ccc(=O)n(-c2cccc3c(C[C@H](NC(=O)C45CCC(CC4)CC5)C(=O)O)cccc23)c1=O [Compound 51] .
Result: > 1000 nM

Query: IC50; subject: CC(=O)N1CCC(C)(C(=O)N[C@@H](Cc2cccc3c(-n4c(=O)ccn(C)c4=O)cccc23)C(=O)O)CC1 [Compound 50]
Result: > 1000 nM

====

target: α4β7 integrin (Homo sapiens (Human), UniProt P13612+P26010); assay: Integrin Adhesion Assay: Protocol 4 (MAdCAM-coated plate, RPMI-8866 cells with stable LOF mutation of the ITGB1 gene); format: cell-based; settings: Protocol 4; RPMI-8866 cells with LOF mutation of ITGB1, MAdCAM; read-out: Mean IC50 α4β7 KO
pIC50: −log10 of the molar value.
Observable: pIC50

Reference set, count: 5
Molecule smiles: CC[C@H]1CCCN1Cc1cnc(-c2cccc3c(C[C@H](NC(=O)C4(C(F)(F)F)CCN(CC(F)F)CC4)C(=O)O)cccc23)c2ccccc12
pIC50: > 8.00
--
Molecule smiles: CC[C@@H]1CCCCN1Cc1cnc(-c2cccc3c(C[C@H](NC(=O)C4(C(F)(F)F)CCN(CC(F)(F)F)CC4)C(=O)O)cccc23)c2ccccc12
pIC50: > 8.00
--
Molecule smiles: O=C(O)[C@H](Cc1cccc2c(-c3nccc4ccc(CN5CCCCC5)cc34)cccc12)NC(=O)C1(C(F)(F)F)CCN(CC(F)(F)F)CC1
pIC50: 7.00 to 8.00
--
Molecule smiles: CC1(C)CCN(Cc2cnc(-c3cccc4c(C[C@H](NC(=O)C5(C(F)(F)F)CCN(CC(F)F)CC5)C(=O)O)cccc34)c3ccccc23)CC1
pIC50: > 8.00
--
Molecule smiles: COc1ccc(CN(C)C)c(OC(F)(F)F)c1-c1cccc2c(C[C@H](NC(=O)c3c(C)cccc3F)C(=O)O)cccc12
pIC50: > 8.00

Query: Fill blank: measured pIC50 of the compound "O=C(O)[C@H](Cc1cccc2c(-c3ncc(CN4CC5CC(C5)C4)c4ccccc34)cccc12)NC(=O)C1(C(F)(F)F)CCN(CC(F)(F)F)CC1" is ____.
Result: > 8.00

Query: Recorded pIC50 for "CN(C)Cc1ccc2c(c1)c(C(F)(F)F)c(-c1cccc3c(C[C@H](NC(=O)c4c(F)cc(C(F)(F)F)cc4F)C(=O)O)cccc13)c(=O)n2C" , please?
Result: 7.00 to 8.00

Query: Give the measured pIC50 of "COc1ccc(CN2CCC(C)(C)CC2)c(OC)c1-c1cccc2c(C[C@H](NC(=O)C3(C(F)(F)F)CCN(CC(F)(F)F)CC3)C(=O)O)cccc12" .
Result: > 8.00

Query: Name the reported pIC50 value associated with the compound "COc1c(CN2CCCCC2)ccc(C(F)(F)F)c1-c1cccc2c(C[C@H](NC(=O)c3c(C)cccc3F)C(=O)O)cccc12"
Result: 7.00 to 8.00

Query: Please look up its pIC50: "CN(C)Cc1ccc2c(c1)c(C(F)(F)F)c(-c1cccc3c(C[C@H](NC(=O)c4c(F)cccc4F)C(=O)O)cccc13)c(=O)n2C"
Result: > 8.00

Query: // pIC50 lookup, key: "O=C(O)[C@H](Cc1cccc2c(-c3ccc(CN4CCC(F)CC4)c4ccncc34)cccc12)NC(=O)C1(C(F)(F)F)CCN(CC(F)(F)F)CC1"
Result: > 8.00

====

target: α4β7 integrin (Homo sapiens (Human), UniProt P13612+P26010); assay: Integrin Adhesion Assay: Protocol 4 (MAdCAM-coated plate, RPMI-8866 cells with stable LOF mutation of the ITGB1 gene); format: cell-based; settings: Protocol 4; RPMI-8866 cells with LOF mutation of ITGB1, MAdCAM; read-out: Mean IC50 α4β7 KO
pIC50: −log10 of the molar value.
Below, each of the compounds is paired with its reported pIC50 value.

Molecule smiles: O=C(O)[C@H](Cc1cccc2c(-c3ncc(CN4CCC(F)(F)CC4)c4ccccc34)cccc12)NC(=O)C1(C(F)(F)F)CCN(CC(F)F)CC1
pIC50: > 8.00

Molecule smiles: Cc1cc(CN2CCCCC2)cnc1-c1cccc2c(C[C@H](NC(=O)C3(C(F)(F)F)CCN(CC(F)F)CC3)C(=O)O)cccc12
pIC50: 7.00 to 8.00

# input for lookup
Query: Which pIC50 reading was recorded for the compound "CN(Cc1cnc(-c2cccc3c(C[C@H](NC(=O)C4(C(F)(F)F)CCN(CC(F)(F)F)CC4)C(=O)O)cccc23)c2ccccc12)CC(F)F" ?
Result: 7.00 to 8.00
